assay-name: NF-kB reporter blockers in CF airway cells – cell-based, GFP fluorescence, uHTS, primary screen (AID 588850);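 also: PAF is a Pseudomonas aeruginosa culture filtrate used as stimulus; plate controls were PAF-stimulated DMSO wells for no effect and unstimulated DMSO wells for full effect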
condition-context: KKLEB NF-kB-GFP reporter, PAF-induced, GFP fluorescence overnight; at 5 µM; hits give high values
About 3,100 (0.86%) of roughly 360,000 compounds were called active. The sample as a whole holds a higher share of actives than the screen did.
parameter-measured: inhibition (%)
Note: unit % is implicit; provide only the numeric part.

Memo: COc1ccccc1N1CCN(C(=O)c2cc(=O)c3cc(C)cc(C)c3o2)CC1 , reported inhibition: 51

Memo: Cc1ccc(NC(=O)[C@H](Cc2ccccc2)NC(=O)CC[C@H]2O[C@@H](n3ccc(=O)[nH]c3=O)[C@H](O)[C@@H]2O)cc1C , reported inhibition: -33.7

Memo: COc1cccc(N2CCN(CC(=O)Nc3ccnn3C3CCCC3)CC2)c1 , reported inhibition: -19

Memo: O=C(CSc1ccccc1)Nc1ccc(C(=O)Nc2cccc(O)c2)cc1 , reported inhibition: -12.7

Memo: COc1cccc(CC(=NO)c2cccc(OC)c2)c1 , reported inhibition: 11.3

Memo: COc1ccc(NC(=S)N2N=CCC2c2ccccc2)cc1 (stereo unspecified) , reported inhibition: 5.1

Memo: CN(C(=O)CCN1C(=O)/C(=C/c2ccccc2F)SC1=S)C1CCS(=O)(=O)C1 (stereo unspecified) , reported inhibition: -14.9

Memo: O=C(CSCc1ccccc1)Nc1ccccc1 , reported inhibition: -2.5

Memo: c1ccc(CNc2ncnc3[nH]ncc23)cc1 , reported inhibition: 0.6

Memo: c1ccc(C(=NNc2nc3ccccc3s2)c2ccccn2)cc1 , reported inhibition: -25.7

Memo: Fc1ccc(Nc2nnns2)cc1 , reported inhibition: -11.2

* * *

assay-name: NF-kB reporter blockers in CF airway cells – cell-based, GFP fluorescence, uHTS, primary screen (AID 588850)
condition-context: KKLEB NF-kB-GFP reporter, PAF-induced, GFP fluorescence overnight; at 5 µM
Among all 360,000 compounds or so, about 3,100 (0.86%) were called active.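 How the source made its calls: active means at least 50% inhibition at 5 µM, scaled per plate between neutral and stimulator controls; inactive means the rest.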 What follows is part of a selection rich in actives, with near analogues and random picks from the rest.
Please state which outcome applies, choosing from active, inactive

Use the examples below as a reference point.
COc1ccc(NC(=O)COC(=O)C2COc3ccccc3O2)cc1 (stereo unspecified)	inactive
COc1cccc2c1C(=O)c1c(O)c3c(c(O)c1C2=O)CC(O)(C(C)=NNC(=O)c1ccc(Cl)c(Cl)c1)CC3OC1CC(N)C(O)C(C)O1 (stereo unspecified)	active
CCCC(C(=O)NC1CCCC1)N(C(=O)Cn1nnc(-c2ccc(C)o2)n1)c1cccc(O)c1 (stereo unspecified)	inactive

For C=CC(=O)Nc1ccc(Nc2ccnc(Nc3ccc(N4CCN(C)CC4)cc3)n2)cc1 , which call appears in the assay record?
active

For Cn1cnnc1SCC(=O)Nc1ccc(N2CCOCC2)cc1 , which call appears in the assay record?
inactive

For O=C(Nc1cc(S(=O)(=O)N2CCCCC2)ccc1Cl)C1COc2ccccc2O1 (stereo unspecified) , which call appears in the assay record?
inactive

For Cc1ccccc1-c1ccc2c(c1)O[C@@H](CN(C)Cc1ccc(C(=O)O)cc1)[C@@H](C)CN([C@H](C)CO)S2(=O)=O , which call appears in the assay record?
inactive

* * *

assay-name: NF-kB reporter blockers in CF airway cells – cell-based, GFP fluorescence, uHTS, primary screen (AID 588850)
condition-context: KKLEB NF-kB-GFP reporter, PAF-induced, GFP fluorescence overnight; at 5 µM; hits give high values
Screen size: about 360,000 compounds; about 3,100 (0.86%) were called active. What follows is part of a selection rich in actives, with near analogues and random picks from the rest.
parameter-measured: inhibition (%)
Note: unit % is implicit; provide only the numeric part.

Cn1c(=O)c2c(ncn2CC(=O)N/N=C/c2cn[nH]c2-c2ccc(F)cc2)n(C)c1=O	-32.9
O=C(c1ccc(Cl)c(S(=O)(=O)N2CCCCCC2)c1)N1CCN(c2ccc(O)cc2)CC1	2.4
CCCCCC(=O)N1C[C@H](O)[C@@H](n2cc(COC(=O)c3ccccc3)nn2)C[C@@H]1c1ccc(C)cc1	-3.3

Memo: CC[C@]1(O)C[C@@H]2CN(CCc3c([nH]c4ccccc34)[C@@](C(=O)OC)(c3cc4c(cc3OC)N(C)[C@H]3[C@@](O)(C(=O)OC)[C@H](OC(C)=O)[C@]5(CC)C=CCN6CC[C@]43[C@@H]65)C2)C1 , reported inhibition: 57.6

Memo: c1ccc(-n2cccc2)c(N2CCCCC2)c1 , reported inhibition: 5.6

* * *

assay-name: NF-kB reporter blockers in CF airway cells – cell-based, GFP fluorescence, uHTS, primary screen (AID 588850)
condition-context: KKLEB NF-kB-GFP reporter, PAF-induced, GFP fluorescence overnight; at 5 µM; hits give high values
Screen size: about 360,000 compounds; about 3,100 (0.86%) were called active. Shown is part of a subset that was picked to be rich in actives.
parameter-measured: inhibition (%)
Note: unit % is implicit; provide only the numeric part.

Memo: COc1ccc(Cl)cc1NS(=O)(=O)c1cccc(C(=O)NCC2CCCO2)c1 (centres undefined) , reported inhibition: -16.2

Memo: Cc1cc(=O)oc2c3c(cc(OCC(=O)NCC(O)c4ccccc4)c12)OC(C)(C)CC3 (centres undefined) , reported inhibition: -24.9

Memo: Cc1cccc(C)c1NC(=O)CCS(=O)(=O)c1cccc2nsnc12 , reported inhibition: -15.6

Memo: COc1ccc(-c2cn[nH]c2-c2ccc(OC)cc2)cc1 , reported inhibition: 88

Memo: Cc1ccc(N(Cc2cc(=O)[nH]c3ccccc23)C(=O)CCl)cc1 , reported inhibition: 63.4

Memo: Clc1ccc(Cn2ncc3c(NCc4cccnc4)ncnc32)cc1 , reported inhibition: -7.9

Memo: CC1(C(=O)Nc2cccc3c2CCCC3)CCN1C(=O)CCc1ccc(Cl)cc1Cl (centres undefined) , reported inhibition: -16

* * *

assay-name: NF-kB reporter blockers in CF airway cells – cell-based, GFP fluorescence, uHTS, primary screen (AID 588850);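 also: PAF is a Pseudomonas aeruginosa culture filtrate used as stimulus; plate controls were PAF-stimulated DMSO wells for no effect and unstimulated DMSO wells for full effect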
condition-context: KKLEB NF-kB-GFP reporter, PAF-induced, GFP fluorescence overnight; at 5 µM
About 3,100 (0.86%) of roughly 360,000 compounds were called active.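 The calls were made as follows: active = at least 50% inhibition at 5 µM, scaled per plate between neutral and stimulator controls; inactive = the rest.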 This excerpt belongs to a sample that is enriched for actives.
Please state which outcome applies, choosing from active, inactive

Use the examples below as a reference point.
O=C(/C=C/Sc1ncn[nH]1)c1ccc(Cl)cc1	inactive
NS(=O)(=O)c1ccc(CCNC(=O)CCCn2c(SCC(=O)N3CCCC3)nc3ccsc3c2=O)cc1	inactive
COC(=O)Cc1c(O)ccn(Cc2cccc(C(F)(F)F)c2)c1=O	inactive

For O=C(Cc1ccc(Cl)c(Cl)c1)Nc1ccc(SC(F)F)cc1 , which call appears in the assay record?
active

For Cc1cccc(C)c1NC(=S)N(Cc1cccnc1)Cc1ccccc1Cl , which call appears in the assay record?
inactive

* * *

assay-name: NF-kB reporter blockers in CF airway cells – cell-based, GFP fluorescence, uHTS, primary screen (AID 588850);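 also: PAF is a Pseudomonas aeruginosa culture filtrate used as stimulus; plate controls were PAF-stimulated DMSO wells for no effect and unstimulated DMSO wells for full effect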
condition-context: KKLEB NF-kB-GFP reporter, PAF-induced, GFP fluorescence overnight; at 5 µM; hits give high values
The campaign covered roughly 360,000 compounds. About 3,100 (0.86%) were called active. This excerpt belongs to a sample that is enriched for actives.
Measured inhibition accompanies every entry in the list below.

Some solved entries appear below for comparison.
Cc1cc2nc(-c3ccc(Cl)cc3)c(Cc3cccc(F)c3)n2c(C)c1Br	17.5% (inactive)
CC(C)c1ccc(CC(=O)N2CCC2(C)C(=O)NS(=O)(=O)c2ccc(C(C)(C)C)cc2)cc1 (stereo not given)	3.4% (inactive)
Cc1cc2nc(-c3ccco3)c(Cc3cccc(F)c3)n2c(C)c1Br	62.5% (active)
CC(C)OC(=O)c1ccc(NCc2cc(O)ccc2O)cc1Cl	86.3% (active)

Let us examine a further case.
Memo: COc1ccc(/C=C/C(=O)NC(=S)NN2CCCCC2c2cccnc2)cc1 (stereo not given) , reported inhibition: -13% (inactive)

* * *

assay-name: NF-kB reporter blockers in CF airway cells – cell-based, GFP fluorescence, uHTS, primary screen (AID 588850);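 also: PAF is a Pseudomonas aeruginosa culture filtrate used as stimulus; plate controls were PAF-stimulated DMSO wells for no effect and unstimulated DMSO wells for full effect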
condition-context: KKLEB NF-kB-GFP reporter, PAF-induced, GFP fluorescence overnight; at 5 µM
The whole screen tested about 360,000 compounds, of which about 3,100 (0.86%) were called active.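 Rule for the calls: active = at least 50% inhibition at 5 µM, scaled per plate between neutral and stimulator controls; inactive = the rest.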 For the sample, actives were picked, then their nearest neighbours and some compounds at random.
Please state which outcome applies, choosing from active, inactive

Use the examples below as a reference point.
CC1(C(=O)NS(=O)(=O)c2ccccc2)CCN1C(=O)C/C=C/c1ccccc1 (stereo unspecified)	inactive
O=C(Nc1ccc2oc(-c3ccccc3F)nc2c1)c1ccco1	inactive
COCCCNC(=S)N1CCN(c2nc(-c3cccc(OC)c3)cs2)CC1	inactive

For CCN(CC)CCCNC(=O)c1cn(C)c2ccc(S(=O)(=O)N(C)C3CCCCC3)cc2c1=O , which call appears in the assay record?
inactive

For O=C(Nc1ccc2oc(-c3ccc4ccccc4c3)nc2c1)c1cccs1 , which call appears in the assay record?
active

For CN(C)c1ccnc2sc3c(=O)n(Cc4ccccc4)cnc3c12 , which call appears in the assay record?
active

For CCCCn1ccnc1C(=O)c1cccc(S(=O)(=O)N2c3ccccc3CC2C)c1 (stereo unspecified) , which call appears in the assay record?
inactive

For O=C(N/N=C/c1ccccn1)c1cccc(NC(=O)c2ccc(Cl)cc2)c1 , which call appears in the assay record?
inactive
